# measurement_description: protein stability index of a GFP-peptide fusion (yeast GPS) (PSI 1-4); higher = more stable; sorted into four equal gates, so the index is relative within each strain
# test_settings: ubr1∆
endpoint_name: protein stability index
# answer = number (no unit)

Input line: Tell me the measured protein stability index of IRNVIMSASNANDFQLT [SRB8] , please.
Output line: 2.19

Input line: Tell me the measured protein stability index of VSNSGAQDEEIHKQIVI [UBP6] , please.
Output line: 3.16

Input line: Tell me the measured protein stability index of LSKIKFPESIWKDFTVE [YCG1] , please.
Output line: 2

Input line: Tell me the measured protein stability index of AETTFLQDVIALSIADD [RPC53] , please.
Output line: 2.18

Input line: Tell me the measured protein stability index of IQIFRAHLWQKIHESIV [PRP8] , please.
Output line: 2.47

Input line: Tell me the measured protein stability index of GSAADTQAIADIVQYHL [PRE3] , please.
Output line: 2.99

Input line: Tell me the measured protein stability index of KILMYQYNIPPEREVLV [RRP6] , please.
Output line: 1.72

Input line: Tell me the measured protein stability index of LNKGKKVTSMTPAPKIS [RPL36A] , please.
Output line: 3.15

###

# measurement_description: protein stability index of a GFP-peptide fusion (yeast GPS) (PSI 1-4); higher = more stable; sorted into four equal gates, so the index is relative within each strain
# test_settings: san1∆
endpoint_name: protein stability index
# answer = number (no unit)

Input line: Tell me the measured protein stability index of DFVRKGGLQKGKLVVSQ [SIR3] , please.
Output line: 2.75

Input line: Tell me the measured protein stability index of DLKASQRVCLRSDSYML [RPT6] , please.
Output line: 2.92

Input line: Tell me the measured protein stability index of ETKVDELRYQSHILNSH [DSN1] , please.
Output line: 2.79

Input line: Tell me the measured protein stability index of REKALNEEAEARRLKNR [RPL19A] , please.
Output line: 3.09

Input line: Tell me the measured protein stability index of VGFWKDDGDDEDLLECL [MTR3] , please.
Output line: 3.5

Input line: Tell me the measured protein stability index of FDERIKFANQLHDEYLV [RPN3] , please.
Output line: 1.45

Input line: Tell me the measured protein stability index of KTARGKAALERLKVFEG [RPL16A] , please.
Output line: 2.95

Input line: Tell me the measured protein stability index of PSNFEINAEEIVDFTLP [PRP8] , please.
Output line: 3

Input line: Tell me the measured protein stability index of LPQFRSSIQESLLSLVG [ECM29] , please.
Output line: 1.7

Input line: Tell me the measured protein stability index of RPSITEAMMLKEEGLQQ [MED1] , please.
Output line: 3.16

Input line: Tell me the measured protein stability index of CLNCEKSKLFEWKSEFV [SNM1] , please.
Output line: 2.97

Input line: Tell me the measured protein stability index of VAHSSRLANLIDYKLRV [SMB1] , please.
Output line: 2.5

Input line: Tell me the measured protein stability index of TRGPFHFRAPSRILYKA [RPL16B] , please.
Output line: 2.08

Input line: Tell me the measured protein stability index of SQPFIKFLNFRPPNGIK [SSN2] , please.
Output line: 2.23

Input line: Tell me the measured protein stability index of NQKIPDNVIVINHKINN [SIR3] , please.
Output line: 1.79
